Assay: folding stability dG unfold (combined trypsin and chymotrypsin); higher = more stable
Output t for folding stability dG unfold not less than 1 kcal/mol; output f otherwise.

Solved entries (count: 6):
| RECORD SEQUENCE | DISCRETE LABEL |
| --- | --- |
| SAGGSASMPLTLTFTTPTRTFTVTIPPSKVSSVTVEEKGPTITVTVEAPDSTITINITPSSVTISASAGGSA [r15_598_JUSTAS] | t |
| SAGGSAGGSSMSSTVEKEPDDVLIISTKVFFDTDTYSTLTTIVEVKPPLDPSNPELLARALGLLSAGGSAGG [r6_293_JUSTAS] | t |
| SAGGSAGGSAGGPPVLTVTRYPPTPYLTVTLPGGRPVVLPVHPDTPPSDVLRLARELTASAGGSAGGSAGGS [r10_33_TrMRF] | f |
| SAGGLGTDSTVPTLTLSVPVLVPTADGSPRELTVRVTIRAPVRLNPPTGELEIGDVEVSVEVFDPSLLSAGG [r13_312_TrMRF] | t |
| SAGGSAGGSAGGMTTTTTAPESGDLVTIHPEKGIAVVTSPEGKVTEVPIDPDDYSVEPASAGGSAGGSAGGS [r10_568_JUSTAS] | t |
| SAGGSAGGSAPPDEGQKWVPVTFPIEFPLPDGNKVKIPIDFWYPKEDGKPIAMQIEWWAKNSAGGSAGGSAG [r3_484_TrROS] | f |

folding stability dG unfold >= 1 kcal/mol for SAGGSASDVVPIDKKITITLPGGEKYEVTEMTVLPDGTVKMKIIKKSPNGNPTEEEITLSPEELVDLSAGGS [r16_498_JUSTAS] ?
t

====

# maps each entry to its folding stability dG unfold
Assay: folding stability dG unfold from chymotrypsin proteolysis; higher = more stable
Hi! Could you send only the number? It should be in kcal/mol, unit omitted.

| RECORD SEQUENCE | NUMERIC READOUT |
| --- | --- |
| SAGGSAGGSAGIPADAPEAVVRLDLYPDGPDTVVTVEAPFKDIPLDDIPENAVVRLEASPLGSAGGSAGGSA [r18_21_TrMRF] | 0.0909 |
| SAGGSAGGSAGGKKKLKIKIEIKIEEKIKKTPNGKLEKEKKIEITKIIEIEPDSPLLKKLSAGGSAGGSAGG [r7_889_TrROS_Hall] | 0.948 |
| SSYTVLEEKVESDPNKDSLTYLTLKTPDGRELTVTEPVKKVDDSWITNSTLTDPVGGRTTTSTTTVKLSGSA [r9_269_JUSTAS] | -0.409 |
| SAGGSAKKPKPGRLFLRYEEPEKGEVVEAVLTVYPNNVVELEVRRPDGKPVPLEKALKLLKELGLLSAGGSA [r15_872_TrMRF] | 2.12 |
| SAGGSAPLPAREFADEIMKKSPGPVEITVVFKEPDEYYVAKITMNPNNGKPQIKVERIPPEDLKKLSAGGSA [r15_156_TrROS] | 0.626 |

Fill in the blank: the reported folding stability dG unfold of SAGGSMVEVIVIDKDGKEHKILIPPELKPEEVAEKVKKFLEDEGYEVESIEIEELPEGFSKVIVNASAGGSA [r2_148_TrMRF] is ____.
1.45

Record request: folding stability dG unfold value, item SAGEWYRMSITFDLDPDNRDQLEKIAEKIREKDGFDKIEPVEHDPSNGRVTINVYMPPEAQDKIQEALRSAG [r5_193_TrROS]
1.25
